The origin of these recorded values is ChEMBL document CHEMBL1201862.

System: A498
Test: NCI tumour cell line growth inhibition, 48 h
The source made the active and inactive calls. No stated cut-off is given here; in the data, active = GI50 up to about 1.1 µM and inactive = higher.
Possible outcomes: active, inactive

Molecule	Classification
CCc1nn(S(=O)(=O)c2ccc(C)cc2)c2c1CS(=O)(=O)CC2	inactive
Clc1cccc(Cl)c1C1ON=C(c2ccccc2)N1C12CC3CC(CC(C3)C1)C2 (centres undefined)	inactive
O=C(N/N=C/C=C/c1ccccc1)c1ccccc1Nc1ccccc1C(=O)N/N=C/C=C/c1ccccc1	inactive
C(=C\c1ccccc1)/C=N/c1ccc2c(c1)Cc1ccccc1-2	inactive
Nc1cccc(CCN2CCN(CCCc3ccccc3)CC2)c1	inactive
Fc1cccc(F)c1C(Nc1nncs1)Nc1nncs1	inactive
COc1ccc(/C=C2\CCC(CN(C)C)C2=O)cc1 (centres undefined)	inactive
COc1cc(C2C3=C(COC3=O)Oc3cc4c(cc32)OCO4)cc(OC)c1OC (centres undefined)	active
CN1CN(c2ccccc2)C2(CCN(C(=O)OC(C)(C)C)CC2)C1=O	inactive
Cc1nc2c(O)cc3c4c(=O)n(C)c(=O)n(C)c4n(Cc4ccccc4)c3c2nc1C	inactive
COc1ccc(Cc2c(N)[nH]c(=O)n(C)c2=O)cc1	inactive
O=C1c2ccccc2C(=O)c2c(O)ccc(O)c21	inactive
N#Cc1cc2cc3c4c(c2oc1=O)CCCN4CCC3	inactive
CN(C)c1ccc(/C=N\N2C(=O)c3ccccc3C2=O)cc1	inactive
CC1=C(Cl)C[C@@H](/C(C)=C\Cl)O[C@@]1(O)C(Br)Br	inactive
O=C(Nc1ccccc1-c1nc2ccccc2[nH]c1=O)c1ccccc1	inactive
CC1=C(c2ccccc2)C(c2ccccc2)=C(c2ccccc2)C2(c3ccccc3)C(=O)C(C)CN12 (centres undefined)	inactive
CCCCOP(=O)(OCCCC)/C(C#N)=C/c1ccc(C)o1	inactive
O=NN(CCCl)C(=O)N[C@H]1CC[C@@H](CC(=O)O)CC1	inactive
O=C1C=C(Nc2nc(O)cc(C(=O)O)n2)c2ccccc2C1=O	inactive
COc1ccc2oc(=N)c(C(N)=O)cc2c1	inactive
Cc1ccc(-c2nc(C)c(C(=O)Nc3ccc(Cl)cc3)s2)cc1	inactive
CCOC(=O)c1ccc(Nc2cnc3ccc(C(F)(F)F)cc3n2)cc1	inactive
CCOC(=O)c1csc(NC(=O)CCN2CCOCC2)n1	inactive
C[Si](C)(C)CNC(=O)OCc1ccccc1	inactive
COc1cc2c(cc1OCCN1CCN(CCOc3cc4c(cc3OC)C(=O)N3CCC[C@H]3C=N4)CC1)N=C[C@@H]1CCCN1C2=O	inactive
O[C@@H]1C[C@H]2N3CC[C@@]2(c2cc4c(cc2C3)OCO4)[C@H]2O[C@@H]12	inactive
CCC/C(Cl)=N\OC(=O)Nc1ccc(F)cc1	inactive
Cn1c(=S)[nH]c2sc3c(c2c1=O)CCSC3	inactive
C[C@]12CCC3[C@@H](CC[C@@H]4c5nonc5CC[C@]34C)C1CCC2=O (some centres undefined)	inactive
CC(CN(C)C)C(C#N)(c1ccccc1)c1ccccc1 (centres undefined)	inactive
C=C1CC2CC[C@@]34C[C@@H]5O[C@@H]6C(O[C@H]7CC[C@H](CC(=O)OC8[C@@H](C)C9OC%10C[C@]%11(C[C@@H]%12O[C@@]%13(C[C@@H](C)[C@@H]%12O%11)C[C@H](C)[C@@H]%11OC%12CC(C(O)CO)OC%12C[C@@H]%11O%13)OC%10CC9O[C@H]8C[C@H]8O[C@@H](CC[C@@H]1O2)C[C@@H](C)C8=C)O[C@@H]7[C@@H]6O3)C5O4 (some centres undefined)	active
COc1c(Cl)c(=O)oc2ccc(Cl)cc12	inactive
O=c1n(-c2ccccc2)c(=O)n2c(-c3ccccc3)c(-c3ccccc3)n12	inactive
CCOC(=O)/C(=N\OC)C(O)C(F)(F)F (centres undefined)	inactive
COc1cc(S(=O)(=O)Nc2nc(-c3ccc(N4C(=O)/C(=C/c5ccccc5)N=C4c4ccccc4)cc3)cs2)ccc1Cl	inactive
COC(=O)C1OC(O[C@H]2CC[C@]3(C)[C@H]4CC=C5[C@@H]6CC(C)(C)CC[C@]6(C(=O)OC)[C@H](O)C[C@@]5(C)[C@]4(C)CC[C@H]3C2(C)C)C(O)C(O)C1O (some centres undefined)	inactive
CC(C)(C)OC(=O)N(CCCN)CCCCN(CCCN)C(=O)OC(C)(C)C	inactive
COC(=O)C1=C(C(=O)OC)C2OC1c1cc3ccccc3cc12	inactive
